- Tested on: RXRa DBDmut IVT, anti-RXR (DBD mutation: RXRa K156A/R161A, NR concentration 90 nM)
- RUN_DESCRIPTION: PBM binding z-score (relative to random genomic background probes); higher = stronger binding; sequences stand for … in GC…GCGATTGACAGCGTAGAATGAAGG
This listing pairs sequences with measured PBM binding z-score.
READOUT: PBM binding z-score

GCAACGAGGGCATTCGAGTTGATAGCATGGCGAT: 3.01
CTCGAACGGTCGTGCTCAGGTGAGTATACCAAAC: 0.177
GCTTACCGGTCAAAGGTTATAGCATGAATAGAAT: 0.541
GGAACGAGGGCAAAGTTGATTGCATCTGTCGACG: 2.7
ACTTACGGGTCAACGAGGTTATACCACGCGTATA: 3.08
CCTAGCAGGCCAATCCGGGTCACTCAAGGCTTGA: 0.0497
AGAACGCGGGCACGCTGAGTTGATAGCAGAGTAG: -0.368
CCTAGCTGGTCAAGGTCACACACGCTATAGGTAC: 1.82
TCGAGTAGGCTACCAATGGGGCATTCAGCTTTCT: -0.0858
AGTCAAAGTTCATCTAGGTGACGTAAGATATGCT: 4.62
ACAGGCAGGTGAGTGAAGGTAACTCAGCTGGACG: -0.851
TCTGCTAGGCCAGTTGGTCAGCTAACGAGCTGCC: -0.198

---

Measured PBM binding z-score, listed per entry for reference.
- Tested on: PXR homodimer (NR concentration 270 nM)
- RUN_DESCRIPTION: PBM binding z-score (relative to random genomic background probes); higher = stronger binding; sequences stand for … in GC…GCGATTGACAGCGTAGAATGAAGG
READOUT: PBM binding z-score

ACGAGCAGGCCAAGTTTGGGTCACTCAAACAAAG: -0.152
CGTCCTAGGTCAGAGAGGTCAGTGAATGCCGAGT: 8.52
CGAACTAGGTCAGAACAGGACAGGGAAGGATGAT: 0.31
AGAATGAGGTTAAGATCAGGAAAACAGAATACAT: 0.189
ACTAGTTGGTCAGCTGAGGTCACAAACAATTCGG: 1.38
CAAACTAGGTCACCGGAAGGTCAGAGTCCGCATG: 0.703
GCTGCCAGGTCAACTGATGGTCAGCTAAAGCTCG: -0.337
ACCCGGAGGACAAAGGTCAGAGCTACGCCAGTGA: 0.302
ATCTCTAGGTAAGACTCAGTTAAGTGAAGAACGC: 0.648
CGTCAAAGTTCAAGGTAACGTATCAGAAAGCAGC: 3.05
CCTAGTTGGTCAGGAGGTCACACAACGGATATGA: 1.53
CCTCGGAGGACATCAGGAGGTCAGAGCTGCCAGA: 0.0732

---

- System: PPARg DBDmut:RXRa IVT, anti-PPARg (DBD mutation: PPARg1 K132A/R137A, NR concentration 270 nM, RXRa partner concentration 90 nM)
- RUN_DESCRIPTION: PBM binding z-score (relative to random genomic background probes); higher = stronger binding; sequences stand for … in GC…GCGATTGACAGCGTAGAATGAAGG
READOUT: PBM binding z-score

TAGCCTAGGTCATTCAGGGGCCCGTATAGAAAGC: 0.467
GCTTGGAGGACAAGGTCAGAGCTTTGTCCGTAGA: -1.32
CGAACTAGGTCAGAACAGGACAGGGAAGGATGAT: 2
ATCGAAAGGTCGACGAGGTGAGTAGACACCGTTT: 0.633
ATATGTAGGTTATCGGATCATTCAGTTTGCGCAT: 2.24
AGAATGAGGTTACCAAAGAGCAGGGAAACGCTTG: 0.794
AGCTCTAGGTAAAGTTCAGTGAAAGATCGATAGA: 0.472
GATACAGGGTCAAGGCCTGAGTACGCGTATTGAT: 0.27
ACTAGCAGGCCAAGGATCACTCAAGATTAGTCCG: -0.388
CCTACTGGGCCAAAAAGGACATTGATGCCGATAA: -0.447
TCTTGCAGATCAGCAGGTTAAGAAAGCTGGCCAA: -1.23
CCTACTGGGCTACGAAAGGTCATTGATTCAGTGA: -0.45
CGGACTGGGGCATAAGGTTACCATAAGCCAGCCC: 1.2
CAAACTAGGTCACGAAAGGCCAAAGTCGAATGAC: 5.28
TCTTGTAGATCAAGCGGGTTAAGAAAGCCTGAGT: -0.333
AGTCAAAGTTCACTAGGTAACGTCAGATTCAGCT: 1.36
TAGCCTAGGGCATTGGGCCAGTATAGTACGCATC: -0.149
TCTATTTGTTGATTAGGGCAACCGAAACAGCGGA: 1.53
CCTAGTTGGTCAAGGTCACACAGGCTATAGGTAC: 0.89
ATCTCTAGGTAACCAAGTTCTGTGAATGCCGAAC: 0.454
CTCGAAAGGTCCTGCTCAGGTGAGTATACCAAAC: 0.172
TGAATGAGGTTATAAGGTCAGGGAACGTTGCAAA: 1.54
TTACCAAGGTGAGCTGAGGTCGTTCATCCAACTC: -0.164
TATACAGGGTCAAAGGCCATAGTACGAATGTCGA: 3.81
GCTTGTAGATCAAGGTTAAGACAGACTAAGCTAA: 0.667
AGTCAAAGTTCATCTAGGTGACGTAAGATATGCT: 1.64
TCGAGTAGGTTACTCGGGGCATTCAGCCAACATA: -0.543
GCTACTTGGTCAGTAAAAGGTCACACACCGGTCG: 0.501
CCGACTGGGGCAAGCTTACCATAACGCACAGCCA: -0.563
ATCTCTAGGTAAAGATAGTTGAGTGAATGCAAAT: 1.87
CTCGAAAGGTCGTGCTCAGGTGAGTATCCCAAAC: 0.243
CCGAGTAGGTTATGGGGCATTTAGGCAACGGTGA: -0.425
TATGCTAGGTCAGTTGGTCAGCTAACGAGCTGCC: 1.5
TCTATTAGCTGAAGGGCAACCGACGAGTCCGTTT: 0.664
AGAATGAGGTTAGACGTAGATCAGGGAAGAAAGT: 0.96
GCCGCTAGGTCAGGTTGGTCAGCTAACGGGTACG: -0.905
CAACCTAGGTCAAGAGGTCAAAGTCCGCTTCCCG: 0.0311
GCTAGCAGGCCATTTGGGTCACGCAATGACGGGC: -0.368
CTACCAAGGTGAACAAGGTCGTTGTTTACTATTC: 0.468
CCTACTGGGCCATTCAGAGGTCATTGAACATATG: 0.0817
CAAACTAGATCACAGAGGTCAAAGTCCGTGCGTA: 1
ATCGTAAGGTCGACGAGGTGAGTATACACCGTTT: 0.856
TCTTGTAGGTCAGCAGGTTAAGAAAGCTGGCCAA: 2.94
CCTTACGGGTCACTGGCAGGTTATAGCATTTGGA: 0.22
TCGAGTAGGTTAGTCGAGGCATTCAGCCAACATA: -0.938
ACAGACAGGTGAGTGATGGTAACTCAGCTGGACG: -0.278
TCTATTAGTTGATTGGGGCAACCGAAACAGCGGA: 0.999
GCTAGCTGGTCAGTAAAAGGTCACACACCGGTCG: 0.0238
ATGGAAAGGTCGAAGGTGAGTATACCCACCCGAA: 1.21
GCAGACAGGTGAAACGCAGGTAACTTAGGGTGGC: -0.0838
GCTCGGAGGAGAAGGTCAGAGCTTTGTCCGTAGA: -0.938

---

Listing: PBM binding z-score of selected sequences
- Test system: PPARg:RXRa 90nM:30nM, anti-RXR (NR concentration 90 nM, RXRa partner concentration 30 nM)
- RUN_DESCRIPTION: PBM binding z-score (relative to random genomic background probes); higher = stronger binding; sequences stand for … in GC…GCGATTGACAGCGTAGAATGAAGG
READOUT: PBM binding z-score

CTCGAAAGGTCGGTTGAGGTGAATATACGGATAA: 1.15
ATCGAAAGGCCGAAGGTGAGTATACCCACCCGAA: 0.738
ACTCGGAGGACAAAGCTCAGAGCTACGCCAGTGA: -0.314
AGATCGAGGGCACGCTGAGTTGATAGCAGAGTAG: 0.951
CGTCTAAGTTCAACTAAGGTAACGTAAAGCACGC: 1.24
CCTCAAAGTTCAACTAAGGTAACGTAAAGCACGC: 2.86
CCGGCTGGGGCAAGGTTACCATAACGCACAGCCA: 0.627
CCTAGTTGGTCAGGACGTCACACACCGGATATGA: 0.147
ATATGTAGGTTAAGAGTCATTCAGGTTGGTTCGC: 8.28
GCAGACAGGGGAAACGCAGGTAACTCAGGGTGGC: -0.89
TCATATAGGTAACGGTGAAAGTCGAACGATATGA: 2.78
AGAACGAGGGCAATGAGTTGATAGCTCGGGTGGC: 0.434
CCTAGCAGCCCAATCTGGGTCACTCAAGGCTTGA: 1.1
ATATGCAGGTTACATCCGGGTCATTCAGGCTATG: 1.49
GGAACGAGGGCATTCGAGATGATAGCATGGCGAT: 0.521
TAGCCTAGGTCATTCAGGGGCCAGTGTAGAAAGC: 1.14
CGTCCAGGGTCAAGGTCAGTGAAAGAGACTCGAA: 5.71
TCTTGTAGATCAATAGAGGCTAAGAAAGTGCGCT: 1.84
TCTTGTAGATCAATAGAGGTAAAGAAAGTGCGCT: 1.62
CCGACTGGGGCAGAAAGGTTACCGTACCATCCGG: 2.38
TTACCAAGGTAAGCTGAGGTCGTTGATCCAACTC: -0.31
TCACATAGGTAATACAGGTGAAAGTCGGCATCTA: 3.03
CAAACTAGGCCAAGAGGTCAAAGTCCGCTTCCCG: 6.63
GGAACGAGGGCAAACTTGATAGCATCTGTCGACG: 1.16
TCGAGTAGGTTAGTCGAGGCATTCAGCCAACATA: 0.72
AGAACGCGGGCAATGAGTTGATAGCACGGGTGGC: -0.404
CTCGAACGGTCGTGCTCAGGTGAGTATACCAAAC: -1.01
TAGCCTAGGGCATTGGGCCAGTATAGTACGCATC: -0.368
ATATGTAGGTTACATTCGGGTCATTCAGGCTATG: 4.62
AGAACGAGGGCAATCAGTTGATAGCACGGGTGGC: 0.658
TGTCAAAGTTCAAAGGTAACCTAAGTATCCACAC: 7.47
ACTATTAGTTGCGACGAGGGCAACCGATAGGTTG: 0.0381
ACTATCAGGCCAAGTTTGGGTCACTCAAACAAAG: 0.171
TAGCCTAGGTCTTGGGCCAGTATACCACGCGAAC: -0.51
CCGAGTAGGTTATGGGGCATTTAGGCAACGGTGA: 4.37
TAGCCTAGGTCATGCGGGCCAGTATTGTGTCGGC: 1.17
TCATGTAGATCAAAGGTTAAGAAAGCCGAAGCCT: 8.85
ACTAGTTGGTCAGCTGTGGTCACACACAATTCGG: -0.158
CCTAGCAGGCCAATCTGGGTCACTGAAGGCTTGA: 1.81
AGAACGAGGGCAATGGGTTGATAGCACGGGTGGC: 1.08
CTCGAAAGGTCGGTTTAGGTGAGTATACGGATAA: 0.683
CTCGAAAGGTCGTGCTCAGGTGATTATACCAAAC: 2.35
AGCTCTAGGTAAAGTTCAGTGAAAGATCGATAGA: 2.37
ATCTCCAGGTAAAGATAGTTCAGTGAATGCAAAT: -0.042
CGTCCAAGGTCAATGCTAGGTTAGTGAAAGCATT: 2.85
TATACAGAGTCAAAGGCCAGAGTACGAATGTCGA: 2.73
TCTGCTAGGGCAGTTGGTCAGCTAACGAGCTGCC: 0.414
TAGCCTAGGTCATTGGGCCAGCATAGTACGCATC: 2.5
TCTATTAGTTGATTCGGGCAACCGAAACAGCGGA: 2.85
CGTCAAAGTTCAACTAAGGGAACGTAAAGCACGC: 4.2
CCTCCGAGGACAACAGGAGGTCAGAGCTGCCAGA: -0.107
